measured_target: Coagulation factor X (Homo sapiens, UniProt P00742)
Sequence (P00742 41-179 limits assumed): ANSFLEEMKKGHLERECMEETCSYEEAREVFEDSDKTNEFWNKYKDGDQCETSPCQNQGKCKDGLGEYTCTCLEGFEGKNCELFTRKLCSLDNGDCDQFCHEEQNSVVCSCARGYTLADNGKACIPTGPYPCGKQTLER
Sequence (P00742 235-488 limits assumed): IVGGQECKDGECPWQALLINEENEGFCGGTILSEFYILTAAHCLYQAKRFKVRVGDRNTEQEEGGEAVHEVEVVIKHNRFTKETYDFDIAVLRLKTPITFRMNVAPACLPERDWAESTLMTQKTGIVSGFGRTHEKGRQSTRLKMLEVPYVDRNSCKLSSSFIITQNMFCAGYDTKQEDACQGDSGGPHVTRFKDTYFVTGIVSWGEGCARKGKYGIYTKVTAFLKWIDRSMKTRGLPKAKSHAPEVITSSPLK
pKi: −log10 of the molar value.
pKi values for the molecules below.

molecule | measured_target | pKi
O=C(NC[C@H]1CN(c2ccc(N3CCC(C(=O)O)CC3)cc2)C(=O)O1)c1ccc(Cl)s1 (mixture of isomers) | Coagulation factor X (Homo sapiens, UniProt P00742) | 7.05
O=C(NC[C@H]1CN(c2ccc(N3CCCC(C(=O)O)C3)cc2)C(=O)O1)c1ccc(Cl)s1 (mixture of isomers) | Coagulation factor X (Homo sapiens, UniProt P00742) | 5.91
O=C(NC[C@H]1CN(c2ccc(N3CCC(C(=O)O)CC3=O)cc2)C(=O)O1)c1ccc(Cl)s1 (mixture of isomers) | Coagulation factor X (Homo sapiens, UniProt P00742) | 6.47
CCOC(=O)C1CCN(c2ccc(N3C[C@H](CNC(=O)c4ccc(Cl)s4)OC3=O)cc2)C(=O)C1 (mixture of isomers) | Coagulation factor X (Homo sapiens, UniProt P00742) | 7.66
